For each of the compounds below, state its IC50.
Biological target: endothelin converting enzyme (Oryctolagus cuniculus)
Assay: Inhibition of endothelin converting enzyme in an RIA assay using big ET-1 as substrate (value corresponds to <25% inhibition when assayed at a 100 uM screening concentration)
Just the number in µM, nothing appended.

Look up and report measured IC50 (endothelin converting enzyme (Oryctolagus cuniculus)) for the following compound: `CCOP(=O)(O)N[C@@H](CC(C)C)C(=O)N[C@@H](Cc1c[nH]c2ccccc12)C(=O)O` 109

Look up and report measured IC50 (endothelin converting enzyme (Oryctolagus cuniculus)) for the following compound: `CC(C)C[C@H](NP(=O)(O)Cc1ccccc1)C(=O)N[C@@H](Cc1c[nH]c2ccccc12)C(=O)O` 61

Look up and report measured IC50 (endothelin converting enzyme (Oryctolagus cuniculus)) for the following compound: `CC(C)C[C@H](NP(=O)(O)OC1CCCCC1)C(=O)N[C@@H](Cc1c[nH]c2ccccc12)C(=O)O` 48

Ref: BindingDB's records for doi:10.1021/jm00053a023
